systemUnderTest: aSyn aggregates on PD sections (Homo sapiens, UniProt P37840)
Construct: 20 μm frozen sections from amygdala were purchased from an external provider (Tissue Solutions Ltd.); tissue Tissue Solutions Ltd; host or cells: human PD amygdala, frozen sections, Braak stage V-VI
testName: Assay 1 (fluorescence based assay): direct staining of human Parkinson's disease brain sections
Format: binding
Set-up: key: − (No); +/− (very weak); + (weak); ++ (good); +++ (strong)
testSettings: staining intensity; compound 100 μM, frozen amygdala sections, PD Braak stage V-VI
measurementKind: Staining of aSyn aggregates on PD sections

compound	systemUnderTest	testValue
CNc1ccc(-c2cc3ccc(-c4ccc(N5CC[C@@H](F)C5)nc4)nc3s2)cc1F [Example 111]	aSyn aggregates on PD sections (Homo sapiens, UniProt P37840)	+++
c1cncc(-c2cc3ccc(-c4ccc(N5CCCC5)nc4)nc3s2)c1 [Example 32]	aSyn aggregates on PD sections (Homo sapiens, UniProt P37840)	+++
COc1ccc(/C=C/c2ccc3cc(-c4cccnc4)sc3n2)cc1 [Example 15]	aSyn aggregates on PD sections (Homo sapiens, UniProt P37840)	+++
Fc1ccncc1-c1ccc2sc(-c3ccc(N4CCCC4)nc3)nc2c1 [Example 40]	aSyn aggregates on PD sections (Homo sapiens, UniProt P37840)	+++
Cn1nccc1-c1ccc2sc(-c3ccc(N4CCCC4)nc3F)nc2n1 [Example 97]	aSyn aggregates on PD sections (Homo sapiens, UniProt P37840)	+
CNc1ccc(-c2cc3ccc(-c4ccc(F)nc4)nc3s2)cc1F [Example 106]	aSyn aggregates on PD sections (Homo sapiens, UniProt P37840)	+++
Cn1cc(-c2ccc3sc(-c4ccc(N5CC[C@@H](F)C5)nc4)nc3c2)cn1 [Example 52]	aSyn aggregates on PD sections (Homo sapiens, UniProt P37840)	+
O=C1COCCN1c1ccc2nc(-c3ccc(N4CC[C@H](F)C4)nc3)sc2c1 [Example 73]	aSyn aggregates on PD sections (Homo sapiens, UniProt P37840)	++

Problem: Name the recorded Staining of aSyn aggregates on PD sections for O=C1COCCN1c1ccc2nc(-c3ccc(N4CCC[C@@H](F)C4)nc3)sc2c1 [Example 126] .
Solution: ++

====

Test system: Aβ plaques on AD sections
testName: Assay 1 (fluorescence based assay): direct staining of human Alzheimer's disease brain sections
Type: binding
Set-up: key: − (No); +/− (very weak); + (weak); ++ (good); +++ (strong)
testSettings: staining intensity; compound 100 μM, frozen amygdala sections, AD Braak stage V-VI
measurementKind: Staining of Aβ plaques on AD sections

Answered examples (8):
FCCOC1CCN(c2cc3nc(-c4ccc(N5CCCC5)nc4)sc3cn2)CC1 −
O=C1c2sc(-c3ccc(N4CCCC4)nc3)nc2CCN1c1cccnc1 ++
c1n[nH]cc1-c1cc2nc(-c3ccc(N4CCCC4)nc3)sc2cn1 +
CNc1ccc(-c2ccc3cc(-c4cccnc4)sc3n2)cc1 +++
CNc1ccc(-c2ccc3cc(-c4ccccc4OC)sc3n2)cn1 +++
CN(C)c1ncc(-c2ccc3cc(-c4cccnc4)sc3n2)cn1 ++
CN1CCN(c2ccc3nc(-c4ccc(N5CC[C@H](F)C5)nc4)sc3c2)C(=O)C1 −
CNc1ccc(-c2ccc3cc(-c4ccc(OC)c(O)c4)sc3n2)cc1 ++

Next, consider the following compound.
Problem: Reported Staining of Aβ plaques on AD sections, compound "F[C@@H]1CCN(c2ccc(-c3ccc4cc(-c5cccnc5)sc4n3)cn2)C1" : ____
Solution: ++
